Hey, just so you know, these numbers are from patent US11542492B2.

target: HCV NS3 protease WT 1b (Hepatitis C virus genotype 1b)
Construct: The single-chain proteolytic domain (NS4A21-32-GSGS-NS33-631) was cloned into pET-14b; His tag (own knowledge of vector pET-14b); made in house; host or cells: Escherichia coli BL21
Sequence (P26663 1013-1207, looked up, natural form): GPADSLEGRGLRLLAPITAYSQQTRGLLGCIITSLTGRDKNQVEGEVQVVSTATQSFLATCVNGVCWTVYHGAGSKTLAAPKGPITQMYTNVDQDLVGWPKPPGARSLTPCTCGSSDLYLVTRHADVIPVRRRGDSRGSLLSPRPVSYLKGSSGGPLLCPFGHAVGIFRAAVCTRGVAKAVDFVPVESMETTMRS
assay protocol: MALDI MS of intact HCV protease 1b WT incubated with compound
Type: binding
condition notes: WT 1b, 1 HR
recorded endpoint: MS_HCVNS3_INTACT_NS3 WT 1b 1 HR

compound	target	recorded endpoint	result
C=C[C@@H]1C[C@]1(NC(=O)[C@@H]1C[C@@H](OC(=O)N2Cc3cccc(F)c3C2)CN1C(=O)[C@H](CNC(=O)c1coc(C(C)=O)c1)NC(=O)OC(C)(C)C)C(=O)NS(=O)(=O)C1CC1 [XVI-5]	HCV NS3 protease WT 1b (Hepatitis C virus genotype 1b)	MS_HCVNS3_INTACT_NS3 WT 1b 1 HR	K (≤30% modification)
C=C[C@@H]1C[C@]1(NC(=O)[C@@H]1CC(OC(=O)N2Cc3cccc(F)c3C2)CN1C(=O)[C@H](COC(=O)N[C@@H]1C(=O)O[C@@H]1C)NC(=O)OC(C)(C)C)C(=O)NS(=O)(=O)C1CC1 (some centres unmarked) [XVI-25]	HCV NS3 protease WT 1b (Hepatitis C virus genotype 1b)	MS_HCVNS3_INTACT_NS3 WT 1b 1 HR	K (≤30% modification)

* * *

target: recombinant human cIAP-1 (Homo sapiens, UniProt Q13490)
Sequence (Q13490 whole entry): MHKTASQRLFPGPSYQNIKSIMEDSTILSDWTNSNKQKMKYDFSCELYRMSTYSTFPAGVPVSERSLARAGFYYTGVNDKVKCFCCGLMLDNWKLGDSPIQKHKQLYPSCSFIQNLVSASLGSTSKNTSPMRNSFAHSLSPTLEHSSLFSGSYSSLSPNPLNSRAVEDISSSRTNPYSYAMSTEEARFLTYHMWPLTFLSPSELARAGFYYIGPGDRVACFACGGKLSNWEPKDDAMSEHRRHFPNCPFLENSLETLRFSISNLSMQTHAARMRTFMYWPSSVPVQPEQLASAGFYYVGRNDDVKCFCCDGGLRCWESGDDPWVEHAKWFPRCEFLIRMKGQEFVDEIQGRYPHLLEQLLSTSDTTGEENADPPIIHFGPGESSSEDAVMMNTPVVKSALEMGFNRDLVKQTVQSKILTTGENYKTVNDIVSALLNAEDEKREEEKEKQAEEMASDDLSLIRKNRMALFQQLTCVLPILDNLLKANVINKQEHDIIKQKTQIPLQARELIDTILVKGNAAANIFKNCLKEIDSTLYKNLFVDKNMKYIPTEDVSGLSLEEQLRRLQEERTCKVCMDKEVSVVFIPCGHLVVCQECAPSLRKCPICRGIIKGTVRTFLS
assay protocol: Fluorescence polarization competition binding assay, cIAP-1
condition notes: c-IAP-1, 3 h
pKi: −log10 of the molar value.
recorded endpoint: pKi

Example entries and their recorded answers appear below.
                                   compound  recorded_endpoint        result
0  CN[C@@H](C)C(=O)N[C@H]1CCCC[C@H]2CC[C@@H](C(=O)NCc3cccc(CNC(=O)[C@@H]4CCC(=O)O4)c3)N2C1=O                pKi  6.00 to 7.00
1  CN[C@@H](C)C(=O)N[C@H]1CCCC[C@H]2CC[C@@H](C(=O)NCc3cccc(NC(=O)CC(C)=O)c3)N2C1=O                pKi  7.00 to 8.00
2  CN[C@@H](C)C(=O)N[C@H]1CCCC[C@H]2CC[C@@H](C(=O)NCc3cccc(NC(=O)C4CCCC(=O)O4)c3)N2C1=O (stereo partly shown)                pKi  6.00 to 7.00

In: Request: pKi, test system recombinant human cIAP-1 (Homo sapiens, UniProt Q13490), entry `CN[C@@H](C)C(=O)N[C@H]1CCCC[C@H]2CC[C@@H](C(=O)NCc3cccc(NC(=O)C4(C(C)=O)CC4)c3)N2C1=O`
Out: 6.00 to 7.00

* * *

target: recombinant human cIAP-1 (Homo sapiens)
assay protocol: Fluorescence polarization competition binding assay, cIAP-1
condition notes: c-IAP-1, 3 h
recorded endpoint: Ki

molecule	result
CN[C@@H](C)C(=O)N[C@H]1CCCC[C@H]2CC[C@@H](C(=O)NCc3cccc(Nc4c(OC(C)C)c(=O)c4=O)c3)N2C1=O [VII-5]	100 to 1000 nM

In: Request: Ki, test system recombinant human cIAP-1 (Homo sapiens), entry CN[C@@H](C)C(=O)N[C@H]1CCCC[C@H]2CC[C@@H](C(=O)NCc3cccc(NC(=O)CC(=O)C(F)(F)F)c3)N2C1=O [VII-9]
Out: 100 to 1000 nM
